Numbers sourced from patent US11247965B2.

For each record, write down the corresponding CC50 at 7 days.
experiment: In vitro cytotoxicity, MTT cell viability assay in HepG2 cells; assay type: cell-based; conditions: human, Cytotoxicity CC50

Entry "Cc1cc(NC(=O)c2ccc(F)c(C(F)(F)C(=O)NC3(C#N)CC3)c2)ccc1F" : reported CC50 at 7 days = ?
> 30 µM

Entry "Cc1cc(NC(=O)c2ccc(F)c(C(F)(F)C(=O)N[C@H]3CC[C@H](O)CC3)c2)ccc1F" : reported CC50 at 7 days = ?
> 30 µM

Entry "Cc1cc(NC(=O)c2ccc(F)c(C(F)(F)C(=O)N3CCc4[nH]c(=O)oc4C3)c2)ccc1F" : reported CC50 at 7 days = ?
5 to 30 µM

Entry "Cc1cc(NC(=O)c2cccc(C(F)(F)C(=O)N3C4CC[C@@H]3C[C@@H](O)C4)c2F)ccc1F" : reported CC50 at 7 days = ?
5 to 30 µM

Entry "N#Cc1cc(NC(=O)c2ccc(Cl)c(C(F)(F)C(=O)N3CCC(O)CC3)c2)ccc1F" : reported CC50 at 7 days = ?
> 30 µM

Entry "Cc1cc(NC(=O)c2ccnc(C(F)(F)C(=O)N3CCC(O)CC3)c2)ccc1F" : reported CC50 at 7 days = ?
> 30 µM

Entry "Cc1cc(NC(=O)c2ccc(F)c(C(F)(F)C(=O)N3CCC(O)(C(N)=O)CC3)c2)ccc1F" : reported CC50 at 7 days = ?
5 to 30 µM

Entry "Cc1cc(NC(=O)c2ccc(F)c(C(F)(F)C(=O)N3[C@@H]4CCC[C@H]3C[C@@H](O)C4)c2)ccc1F" : reported CC50 at 7 days = ?
5 to 30 µM

Entry "Cc1cc(NC(=O)c2ccnc(C(F)(F)C(=O)N3CCc4nc(N)sc4C3)c2)ccc1F" : reported CC50 at 7 days = ?
> 30 µM

Entry CNC(=O)NCC(=O)N1CC2CN(C(=O)C(F)(F)c3cc(C(=O)Nc4ccc(F)c(C)c4)ccc3F)CC2C1 (stereo not shown) : reported CC50 at 7 days = ?
> 30 µM

Entry CCC(C)NC(=O)C(F)(F)c1cc(C(=O)Nc2ccc(F)c(Cl)c2)cn1C (stereo not shown) : reported CC50 at 7 days = ?
> 30 µM

Entry Cc1cc(NC(=O)c2ccc(F)c(C(F)(F)C(=O)N3CCC(N)C(C)(C)C3)c2)ccc1F (stereo not shown) : reported CC50 at 7 days = ?
5 to 30 µM

Entry "Cc1cc(NC(=O)c2cc(Br)c(C(F)(F)C(=O)NC(C)(C)C)s2)ccc1F" : reported CC50 at 7 days = ?
5 to 30 µM

Entry "CC[C@@H](C)NC(=O)C(F)(F)c1cc(C(=O)Nc2ccc(F)c(C)c2)cn1C" : reported CC50 at 7 days = ?
> 30 µM

Entry Cc1cc(NC(=O)c2ccc(F)c(C(F)(F)C(=O)N3CC4CNCC4C3)c2)ccc1F (stereo not shown) : reported CC50 at 7 days = ?
5 to 30 µM

Entry "Cn1ccc(C(=O)Nc2ccc(F)c(Cl)c2)c1C(F)(F)C(=O)N[C@@H]1CCOC1" : reported CC50 at 7 days = ?
> 30 µM
